Target: T1, HIS-tagged human NKG2D (human, UniProt P26718 73-216, limits assumed)
T1 construct: Captured on HIS1K biosensors; not shown: HIS tag
T1 sequence (looked up): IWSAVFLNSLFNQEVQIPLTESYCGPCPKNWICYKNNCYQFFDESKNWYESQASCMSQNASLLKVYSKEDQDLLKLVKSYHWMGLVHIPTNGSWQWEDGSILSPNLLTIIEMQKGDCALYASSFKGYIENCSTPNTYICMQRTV
Test: Octet (BLI): His-tagged human NKG2D captured on HIS1K biosensors, dipped into 100 nM bivalent mAb
# pKd values compiled below
To interpret pKd, take it as minus log10 of a concentration measured in moles per litre.

Recorded results for 2 binders are shown here.
binder="XENP27594 (antibody, V domains shown, bivalent anti-NKG2D mAb, IgG1 with ablation variants; also called mAb E[NKG2D]_H1L1_IgG1_PVA_/S267K) VH: EVQLVESGGGLVKPGGSLRLSCAASGFTFSSYSMNWVRQAPGKGLEWVSSITSSSSYIYYADSVKGRFTISRDNAKNSLYLQMNSLRAEDTAVYYCARDRRYFDWFPLDYRGQGTLVTVSS VL: DIQMTQSPSSLSASVGDRVTITCRASQGISSWLAWYQQKPEKAPKSLIYAASSLQSGVPSRFSGSGSGTDFTLTISSLQPEDFATYYCQQYNGYPYTFGQGTKLEIKR" endpoint_result=9.46
binder="XENP27603 (antibody, human IgG1, kappa, V domains shown, humanized bivalent anti-NKG2D mAb, IgG1 with ablation variants; also called mAb B[NKG2D]_H2L2_IgG1_PVA_/S267K) VH: EVQLVQSGAEVKKPGESLRISCKASGYTFTSYWMNWVRQMPGKGLEWMGRIDPYDSETHYNPSFQGHVTISVDKSISTAYLQWSSLKASDTAMYYCAKMGDYSFDYWGQGTLVTVSS VL: DIQLTQSPDSLAVSLGERATINCKASGNIHNYLAWYQQKPGQSPKVLVYNAKTLADGVPSRFSGSGSGTDYTLTISSLQAEDVAVYYCQHFWSTTWTFGGGTKVEIKR" endpoint_result=9.15

// switching to the query binder
Form field pKd, entry XENP27601 (antibody, human IgG1, kappa, V domains shown, humanized bivalent anti-NKG2D mAb, IgG1 with ablation variants; also called mAb B[NKG2D]_H2L1_IgG1_PVA_/S267K) VH: EVQLVQSGAEVKKPGESLRISCKASGYTFTSYWMNWVRQMPGKGLEWMGRIDPYDSETHYNPSFQGHVTISVDKSISTAYLQWSSLKASDTAMYYCAKMGDYSFDYWGQGTLVTVSS VL: DIQLTQSPSSLSASVGDRVTITCRASGNIHNYLAWYQQKPGKSPKVLVYNAKTLADGVPSRFSGSGSGTDYTLTISSLQPEDFATYYCQHFWSTTWTFGGGTKVEIKR : 9.05
